Data provenance: paper PMC11580931

target: 3-pTza peptide (Biotin-AminocaproicAcid-AGAG-3-pTza-AGAG); assay: BLI
For each record, write down the corresponding Kd.
Give the number; nM is assumed, so skip it.

Query string: Kd lookup needed for hSC44.31 IgG (antibody, V domains shown) VH: EVQLVESGGGLVQPGGSLRLSCTASGFSIDSYGFSWVRQAPGKGLEHIGYLTAGGRAFYASWAKSRSTITRNTNENTVTLKMNSLRAEDTAVYYCAKLGTGTPFAIWGQGTLVTVSS VL: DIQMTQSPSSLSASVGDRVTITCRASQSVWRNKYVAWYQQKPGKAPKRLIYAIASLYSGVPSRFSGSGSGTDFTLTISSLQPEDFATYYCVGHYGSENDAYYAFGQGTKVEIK , thanks.
Result string: 2.71

Query string: Entry hSC44.13 IgG (antibody, V domains shown) VH: EVQLVESGGGLVQPGGSLRLSCTASGFSIDSYGFSWVRQAPGKGLEHIGYLTAGGRAFYASWAKSRSTITRNTNENTVTLKMNSLRAEDTAVYYCAKLGTGSPVAIWG VL: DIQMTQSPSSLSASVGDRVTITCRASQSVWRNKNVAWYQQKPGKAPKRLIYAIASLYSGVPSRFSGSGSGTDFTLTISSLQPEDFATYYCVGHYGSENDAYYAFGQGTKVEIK has what Kd?
Result string: 0.405

Query string: What value of measured Kd is listed for hSC44 IgG (humanized version of rSC44) (antibody, V domains shown) VH: EVQLVESGGGLVQPGGSLRLSCTASGFSIDSYGFSWVRQAPGKGLEHIGYLTAGGRAFYASWAKSRSTITRNTNENTVTLKMNSLRAEDTAVYYCAKLGSGNPVAIWGQGTLVTVSS VL: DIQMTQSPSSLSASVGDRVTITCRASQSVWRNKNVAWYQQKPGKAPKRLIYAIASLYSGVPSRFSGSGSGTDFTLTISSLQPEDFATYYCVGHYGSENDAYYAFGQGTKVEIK ?
Result string: 1.2

Query string: Suppose we examine the binder hSC44.3 IgG (antibody, V domains shown) VH: EVQLVESGGGLVQPGGSLRLSCTASGFSIDSYGFSWVRQAPGKGLEHIGYLTAGGRAFYASWAKSRSTITRNTNENTVTLKMNSLRAEDTAVYYCAKIGSGSPVAIWG VL: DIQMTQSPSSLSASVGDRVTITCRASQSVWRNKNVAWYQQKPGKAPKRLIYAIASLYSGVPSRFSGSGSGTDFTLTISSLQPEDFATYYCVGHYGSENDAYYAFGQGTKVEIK ; what Kd value has been reported?
Result string: 0.352

Query string: // lookup Kd for hSC44.20.N32F^L IgG (antibody, V domains shown) VH: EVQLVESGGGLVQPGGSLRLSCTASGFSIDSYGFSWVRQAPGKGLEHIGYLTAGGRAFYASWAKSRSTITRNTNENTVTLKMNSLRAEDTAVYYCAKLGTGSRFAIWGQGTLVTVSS VL: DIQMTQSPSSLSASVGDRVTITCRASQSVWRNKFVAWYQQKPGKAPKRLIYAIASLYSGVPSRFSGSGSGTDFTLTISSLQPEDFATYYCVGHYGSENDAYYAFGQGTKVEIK
Result string: 1.54

Query string: Given hSC44.28 IgG (antibody, V domains shown) VH: EVQLVESGGGLVQPGGSLRLSCTASGFSIDSYGFSWVRQAPGKGLEHIGYLTAGGRAFYASWAKSRSTITRNTNENTVTLKMNSLRAEDTAVYYCAKLGTGSPLAIWG VL: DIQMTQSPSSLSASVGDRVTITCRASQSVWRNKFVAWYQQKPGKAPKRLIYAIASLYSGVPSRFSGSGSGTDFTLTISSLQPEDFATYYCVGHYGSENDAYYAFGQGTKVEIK , state its recorded Kd.
Result string: 1.21

Query string: So what's the measured Kd for this one? hSC44.1 IgG (antibody, V domains shown) VH: EVQLVESGGGLVQPGGSLRLSCTASGFSIDSYGFSWVRQAPGKGLEHIGYLTAGGRAFYASWAKSRSTITRNTNENTVTLKMNSLRAEDTAVYYCAKLGTGSPIAIWGQGTLVTVSS VL: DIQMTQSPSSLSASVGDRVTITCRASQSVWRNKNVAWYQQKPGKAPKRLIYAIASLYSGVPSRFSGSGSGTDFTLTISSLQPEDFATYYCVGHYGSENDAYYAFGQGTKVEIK
Result string: 0.588

Query string: Name the recorded Kd for hSC44.22 IgG (antibody, V domains shown) VH: EVQLVESGGGLVQPGGSLRLSCTASGFSIDSYGFSWVRQAPGKGLEHIGYLTAGGRAFYASWAKSRSTITRNTNENTVTLKMNSLRAEDTAVYYCAKLGTGTPVAIWG VL: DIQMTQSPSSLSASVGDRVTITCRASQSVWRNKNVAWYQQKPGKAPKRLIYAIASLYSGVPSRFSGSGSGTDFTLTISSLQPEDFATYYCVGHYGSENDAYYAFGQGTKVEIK .
Result string: 0.495

Query string: For hSC44.8 IgG (antibody, V domains shown) VH: EVQLVESGGGLVQPGGSLRLSCTASGFSIDSYGFSWVRQAPGKGLEHIGYLTAGGRAFYASWAKSRSTITRNTNENTVTLKMNSLRAEDTAVYYCAKIGTGSRVAIWG VL: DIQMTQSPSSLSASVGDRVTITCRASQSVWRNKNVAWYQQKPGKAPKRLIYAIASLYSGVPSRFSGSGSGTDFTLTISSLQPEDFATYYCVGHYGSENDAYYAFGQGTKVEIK , what is its reported Kd?
Result string: 0.185
